# Tested on: c-Src
# test-protocol: phosphorylation enrichment, bacterial display (enrichment ratio); higher = better substrate or ligand; peptides without Tyr show the background;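 also: 11-residue human phosphosite peptides and single-mutation variants displayed on the E. coli surface, counted by deep sequencing, each peptide's frequency after selection divided by its frequency in the unselected input library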;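 also: frequency after pTyr selection over input frequency; kinase dosed for 20-30% of maximal phosphorylation in three min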
I'd be grateful if you could share measured phosphorylation enrichment for these entries.
// response body must contain only the number

I would be grateful if you could share the reported phosphorylation enrichment for LIGRGYDDPEV [HSPA9_Y128_R127G] . 0.567

I would be grateful if you could share the reported phosphorylation enrichment for PIYEGYALPHA [ACTA1_Y171] . 14.8

I would be grateful if you could share the reported phosphorylation enrichment for SSWPDYVRPLP [HSPB1_Y54_G53D] . 0.475

I would be grateful if you could share the reported phosphorylation enrichment for KDFTIHNPNLL [VANGL1_Y290_Y290H] . 0.439

I would be grateful if you could share the reported phosphorylation enrichment for TEAEPYFRSLR [NPHS1_Y1138_YF] . 0.477

I would be grateful if you could share the reported phosphorylation enrichment for DSILVYQRKEQ [USH2A_Y1909_G1911R] . 0.626

I would be grateful if you could share the reported phosphorylation enrichment for VSYDEYRYRSF [CFTR_Y515_V520F] . 0.939

I would be grateful if you could share the reported phosphorylation enrichment for SVTCTYYPALN [TP53_Y126_S127Y] . 0.575

I would be grateful if you could share the reported phosphorylation enrichment for KWHREYNSKYV [RICTOR_Y835] . 0.294

I would be grateful if you could share the reported phosphorylation enrichment for KPGLVYNKVNP [SPRED3_Y72] . 0.539

I would be grateful if you could share the reported phosphorylation enrichment for IIEDPYYGNDS [ACP1_Y132] . 2.73

I would be grateful if you could share the reported phosphorylation enrichment for TVNIRYLLFPS [SERAC1_Y548_S543T] . 0.434

I would be grateful if you could share the reported phosphorylation enrichment for DPTNTYARPAE [SGMS2_Y24] . 0.372

I would be grateful if you could share the reported phosphorylation enrichment for KAWTIYRPEDS [ZBP1_Y165] . 0.566

----------
# tested-on: MERTK (UniProt Q12866)
# Sequence (Q12866 whole entry, looked up): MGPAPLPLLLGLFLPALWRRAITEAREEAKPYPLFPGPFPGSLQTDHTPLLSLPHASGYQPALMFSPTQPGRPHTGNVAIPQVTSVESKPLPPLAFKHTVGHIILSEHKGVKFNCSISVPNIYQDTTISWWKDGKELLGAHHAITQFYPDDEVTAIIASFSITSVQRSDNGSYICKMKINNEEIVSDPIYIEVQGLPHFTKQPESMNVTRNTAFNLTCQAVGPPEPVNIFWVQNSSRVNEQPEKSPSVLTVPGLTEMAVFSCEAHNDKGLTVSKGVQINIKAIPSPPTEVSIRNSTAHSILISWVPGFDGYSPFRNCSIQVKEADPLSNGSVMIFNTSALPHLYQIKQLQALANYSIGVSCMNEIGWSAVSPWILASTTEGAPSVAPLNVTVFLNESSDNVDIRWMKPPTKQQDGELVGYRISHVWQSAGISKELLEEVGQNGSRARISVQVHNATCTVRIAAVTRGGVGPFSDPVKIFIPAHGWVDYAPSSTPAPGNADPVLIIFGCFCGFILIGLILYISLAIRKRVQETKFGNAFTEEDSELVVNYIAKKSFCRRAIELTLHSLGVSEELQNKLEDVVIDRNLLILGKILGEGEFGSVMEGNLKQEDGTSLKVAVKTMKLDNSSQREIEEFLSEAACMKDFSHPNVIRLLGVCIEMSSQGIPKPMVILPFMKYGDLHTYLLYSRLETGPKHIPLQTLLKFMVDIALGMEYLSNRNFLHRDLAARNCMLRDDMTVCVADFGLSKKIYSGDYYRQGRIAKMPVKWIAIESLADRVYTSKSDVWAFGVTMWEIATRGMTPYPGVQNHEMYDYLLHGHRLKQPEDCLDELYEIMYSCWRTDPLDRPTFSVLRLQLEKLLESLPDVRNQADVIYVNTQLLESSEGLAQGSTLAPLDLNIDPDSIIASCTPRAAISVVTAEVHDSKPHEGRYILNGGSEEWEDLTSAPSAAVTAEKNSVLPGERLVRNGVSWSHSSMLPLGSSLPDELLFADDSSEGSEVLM
# test-protocol: phosphorylation enrichment, bacterial display (enrichment ratio); higher = better substrate or ligand; peptides without Tyr show the background
I'd be grateful if you could share measured phosphorylation enrichment for these entries.
// response body must contain only the number

I would be grateful if you could share the reported phosphorylation enrichment for SVTCTYYPALN [TP53_Y126_S127Y] . 0.412

I would be grateful if you could share the reported phosphorylation enrichment for SSEYHCVGGFY [CTSC_Y347_Y347C] . 0.775

I would be grateful if you could share the reported phosphorylation enrichment for DELDKYSEVLK [TPM1_Y60_A63V] . 0.48

I would be grateful if you could share the reported phosphorylation enrichment for NGPDVYVLPLT [AATK_Y93] . 1.69

I would be grateful if you could share the reported phosphorylation enrichment for NPQKPYFIRLF [WAS_Y83_S82P_YF] . 0.423

I would be grateful if you could share the reported phosphorylation enrichment for QFLMMYVWSAS [ABCD1_Y337_K336M] . 0.541

I would be grateful if you could share the reported phosphorylation enrichment for EFTPLYPMLFG [SCLY_Y280] . 2.6

I would be grateful if you could share the reported phosphorylation enrichment for CVAARYMDVKG [WFIKKN2_Y93] . 0.435

I would be grateful if you could share the reported phosphorylation enrichment for TQRPFYKGGGG [TYROBP_Y112_YF] . 0.331

I would be grateful if you could share the reported phosphorylation enrichment for RAMPVYKKAEH [TP63_Y231] . 0.292

I would be grateful if you could share the reported phosphorylation enrichment for FDNPVYQKTTE [LDLR_Y828] . 0.453

I would be grateful if you could share the reported phosphorylation enrichment for PAEPRYRARQR [KCNJ11_Y26] . 0.929

I would be grateful if you could share the reported phosphorylation enrichment for FCRHNYGVVES [HLA-DRB1_Y112_YF] . 0.44

I would be grateful if you could share the reported phosphorylation enrichment for CTTIHYNYMRN [TP53_Y234_C238R] . 0.468
